target_system: T1, PUF4 RNA-binding domain (Saccharomyces cerevisiae, UniProt P25339 537-888)
T1 sequence: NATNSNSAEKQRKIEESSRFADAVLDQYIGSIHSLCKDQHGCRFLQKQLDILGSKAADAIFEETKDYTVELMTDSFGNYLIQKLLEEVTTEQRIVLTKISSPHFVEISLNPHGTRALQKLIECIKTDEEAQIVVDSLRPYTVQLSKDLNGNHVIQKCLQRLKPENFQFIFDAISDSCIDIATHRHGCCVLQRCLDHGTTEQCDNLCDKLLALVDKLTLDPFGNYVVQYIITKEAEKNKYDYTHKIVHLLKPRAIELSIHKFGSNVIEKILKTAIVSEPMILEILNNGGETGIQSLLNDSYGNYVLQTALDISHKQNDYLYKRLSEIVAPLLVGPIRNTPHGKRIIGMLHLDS
method_notes: Mg; RNA-MaP; 20 mM Na-HEPES pH 7.4, 30 mM KOAc, 0.75 mM MgCl2, 0.1% Tween-20, 5% glycerol, 0.1 mg/mL BSA, 2 mM DTT; 25 C; 0.0125-409.6 nM protein
assay_context: tags: N-His6-TEV cleaved; C-SNAP kept, Cy3B-labelled; label: tethered on chip by stalled RNA polymerase
Hi! Just check whether Kd is below 30 nM. Below gives fulfilled, equal or above gives not fulfilled.

- UCUCUUUGUAUUAUUAUCUCUUCUCUU (ssRNA) [Ie_S1_P5E.1_K5.1_C5.1_H5.1_A5.1_F5.1_[+10TCTCT]_T5.1]: fulfilled

Kd under 30 nM? Item: Ic_S4_P5E.1_K5.1_C5.1_H5.1_A5.1_[T6A]_[A7T]_F5.1_[T8A]_[T9C]_[A10G]_T5.1 (ssRNA) RNA: UUUGACAACUGAUCGUUCUUUCUUGUAUAUACGUUCUUUCUCGAUCAGUUGUCUUU
fulfilled

Criterion: Kd strictly below 30 nM. Is it met by UCUCUUCGUAUAUUAUUAUUUCUCUU (ssRNA) [Id_ii_S1_P5E.3_K5.2_C5.2_[T-1G]_H5.2_A5.1_F5.1_T5.2_[A12T]] ?
fulfilled

# check: Kd < 30 nM for ACAAACAUUAUAUAUAUAACAAAC (ssRNA) [Id_ii_S3_P3E.3_K3.2_C3.2_[C-2A]_H3.2_A3.1_F3.1_T3.2]
not fulfilled

Hello, is Kd of the following binder strictly smaller than 30 nM? Ib_S2_P5E.1_K5.1_C5.1_H5.1_[T3C]_A5.1_F5.1_[A10T]_T5.1 (ssRNA) RNA: UUUGAUUAAUAUGAUAUCGUUCUUUCUUGCAUUAUUUUUCUUUCUCGAUAUCAUAUUAAUCUUU
not fulfilled

# strict comparison: is reported Kd < 30 nM? input = ACAAACUGUCCUAUUAUUAACAAAC (ssRNA) [Ie_S3_P5E.1_K5.1_C5.1_H5.1_[+2TCC]_A5.1_F5.1_T5.1]
not fulfilled
